# assay.notes: RP, Waters ACQUITY UPLC HSS T3, 100 × 2.1 mm, 1.8 µm; A: water + 0.1% formic acid, pH 3; B: 30% methanol + 70% acetonitrile + 0.1% formic acid, pH 3; gradient (min/%B) 0.0/5 1.0/8 2.0/15 3.0/40 4.0/70 4.5/100 5.0/100 6.4/100 6.6/5.0 6.8/5.0 7.0/5.0
# condition.set: stereoisomer not certain
outcome.measure: LC retention time (min)

[I] NC(CS)C(=O)O (stereo unspecified)
[II] CC(CCC(=O)O)C1CCC2C3C(=O)CC4CC(=O)CCC4(C)C3CC(=O)C12C (stereo unspecified) [dehydrocholic acid]
Query :: # min-compare on LC retention time between I and II // respond with label for picked entry
Result :: I
(I: 0.491 min, II: 4.05 min)

====

# assay.notes: RP, Waters ACQUITY UPLC BEH C18, 100 × 2.1 mm, 1.7 µm; A: water + 0.1% formic acid, pH 3; B: 80% acetonitrile + 20% acetone + 0.1% formic acid, pH 3; gradient (min/%B) 0/0 6/100
# condition.set: stereoisomer not certain
outcome.measure: LC retention time (min)

Completed entries (count: 4):
CC(O)C1CCC2C3CCC4CC(=O)CCC4(C)C3CCC12C (stereo not drawn) [20-beta-Hydroxy-5-alpha-pregnan-3-one]	4.33
CCC=CCC=CCC=CCC=CCC=CCCCC(=O)OCC(COP(=O)([O-])OCC[N+](C)(C)C)OC(=O)CCCC=CCC=CCC=CCC=CCC=CCC (stereo not given)	5.62
Cn1cnc2c1c(=O)[nH]c(=O)n2C	1.37
O=c1c(O)c(-c2ccc(O)cc2)oc2cc(O)cc(O)c12	2.76

[a] CNCC(=O)O
[b] Cn1c(=O)[nH]c2ncn(C)c2c1=O
[c] O=c1[nH]cnc2nc[nH]c12
Query :: # sort list by recorded LC retention time, greatest to least In plain terms: list the labels in the order you were asked to.
Result :: b, c, a
(b: 1.45 min, c: 0.882 min, a: 0.574 min)

[a] Nc1ccc(C(=O)NCC(=O)O)cc1
[b] NC(CCCC(N)C(=O)O)C(=O)O (stereo not given)
Query :: Which is greater in LC retention time, the first item a or the second item b ? // respond with label for picked entry
Result :: a

[1] O=C(O)CCCC(=O)O
[2] CNC(CC(=O)O)C(=O)O (stereo not given)
Query :: Which is greater in LC retention time, the first item 1 or the second item 2 ? // respond with label for picked entry
Result :: 1
(1: 1.37 min, 2: 0.58 min)

[1] COc1cc(C(=O)O)cc(OC)c1O
[2] O=C(O)C1CCCN1 (stereo not given)
Query :: # min-compare on LC retention time between 1 and 2 // respond with label for picked entry
Result :: 2
(2: 0.626 min, 1: 1.79 min)

[P] O=C(O)CCCCC(=O)O
[Q] Cc1ncc(C[n+]2csc(CCOP(=O)(O)O)c2C)c(N)n1 [Thiamine monophosphate Cloride dihydrat]
Query :: # min-compare on LC retention time between P and Q // respond with label for picked entry
Result :: Q
(Q: 0.595 min, P: 1.5 min)

[a] O=c1cc[nH]c(=O)[nH]1
[b] O=C(O)CCc1ccc(O)c(O)c1 [3,4-dihydroxyhydrocinnamic acid]
Query :: # min-compare on LC retention time between a and b // respond with label for picked entry
Result :: a

Data origin, for the record: the RepoRT retention time repository (doi:10.1016/j.aca.2011.12.065)
